Molecular target: α4β2 nAChR (Rattus norvegicus, UniProt P09483+P12390)
Construct: the rat complete brain P1 fraction (occupying 2 mg of wet tissue for each assay); from tissue; host or cells: whole rat brain, synaptosome pellet (fraction P1)
Experiment: [3H]-cytisine competitive binding on whole rat brain synaptosomes
REPORTED_ENDPOINT: Ki (µM)
Output spec: scalar in µM, unitless text.

Per the reported α4β2 nAChR (Rattus norvegicus, UniProt P09483+P12390) data, CN1CCC[C@H]1COC(=O)c1cccc(Br)c1 has Ki of 0.132

Per the reported α4β2 nAChR (Rattus norvegicus, UniProt P09483+P12390) data, CN1CCC[C@H]1COC(=O)c1cccc(F)c1 has Ki of 0.094

Per the reported α4β2 nAChR (Rattus norvegicus, UniProt P09483+P12390) data, CN1CCCC1CCOC(=O)c1ccccc1 (racemic) has Ki of 1.79

Per the reported α4β2 nAChR (Rattus norvegicus, UniProt P09483+P12390) data, CN1CCC[C@H]1COC(=O)c1ccccc1 has Ki of 0.023

Per the reported α4β2 nAChR (Rattus norvegicus, UniProt P09483+P12390) data, CN1CCC[C@H]1COC(=O)c1cccc(Cl)c1 has Ki of 0.009

Per the reported α4β2 nAChR (Rattus norvegicus, UniProt P09483+P12390) data, CN1CCC[C@H]1COC(=O)c1ccc2ccccc2c1 has Ki of 0.12

Per the reported α4β2 nAChR (Rattus norvegicus, UniProt P09483+P12390) data, CN1CCCC1CCOC(=O)C(c1ccccc1)c1ccccc1 (racemic) has Ki of 0.113

Per the reported α4β2 nAChR (Rattus norvegicus, UniProt P09483+P12390) data, CN1CCCC1CCOC(=O)c1cccc(Cl)c1 (racemic) has Ki of 3.46

----------
Task for the reader: assign each of the following compounds its reported melting point.
Structures can show the parent of a compound that is named as a salt.

Field melting point (entry CN1CCC[C@H]1COC(=O)c1cccc(Br)c1 (as salt: hydrochloride) ) reads 99 to 101.4 °C

Field melting point (entry CN1CCCC1CCOC(=O)C(c1ccccc1)c1ccccc1 (racemic) (as salt: hydrochloride) ) reads 115.3 to 117.2 °C

Field melting point (entry CN1CCCC1CCOC(=O)c1cccc(F)c1 (racemic) (as salt: hydrochloride) ) reads 106.8 to 107.5 °C

Field melting point (entry CN1CCCC1CCOC(=O)c1ccc2ccccc2c1 (racemic) (as salt: hydrochloride) ) reads 155.6 to 157.4 °C

Field melting point (entry CN1CCCC1CCOC(=O)Cc1ccccc1 (racemic) (as salt: hydrochloride) ) reads 86.7 to 87.4 °C

Field melting point (entry CN1CCC[C@H]1COC(=O)c1ccc2ccccc2c1 (as salt: hydrochloride) ) reads 125.5 to 127.1 °C

Field melting point (entry CN1CCC[C@H]1COC(=O)c1cccc(Cl)c1 (as salt: hydrochloride) ) reads 120.5 to 121.9 °C

Field melting point (entry CN1CCCC1CCOC(=O)c1ccccc1 (racemic) (as salt: hydrochloride) ) reads 88.6 to 89.1 °C

Field melting point (entry CN1CCC[C@H]1COC(=O)Cc1ccc(Cl)c(Cl)c1 (as salt: hydrochloride) ) reads 183.5 to 184.8 °C

Field melting point (entry CN1CCC[C@H]1COC(=O)Cc1ccc(Cl)cc1Cl (as salt: hydrochloride) ) reads 179.1 to 180.5 °C

Field melting point (entry CN1CCCC1CCOC(=O)c1cccc(Cl)c1 (racemic) (as salt: hydrochloride) ) reads 144.7 to 146.2 °C

Field melting point (entry Cc1ccccc1C(=O)OC[C@@H]1CCCN1C (as salt: hydrochloride) ) reads 130.5 to 131.6 °C

----------
Molecular target: h-SERT (Homo sapiens)
Construct: purchased Perkin-Elmer RBHSTM400UA; host or cells: HEK293 membranes
Assay: [3H]-paroxetine radioligand binding on h-SERT membranes (HEK293)
Conditions: result in words
REPORTED_ENDPOINT: affinity for h-SERT (displacement of [3H]-paroxetine from the central binding site)

Cc1ccccc1C(=O)OCCC1CCCN1C (racemic) = did not display affinity
Cc1ccccc1C(=O)OC[C@@H]1CCCN1C = did not display affinity
Cc1ccc(C(=O)OC[C@@H]2CCCN2C)cc1 = did not display affinity
Cc1ccc(C(=O)OCCC2CCCN2C)cc1 (racemic) = did not display affinity

----------
Task for the reader: assign each of the following molecules its reported % radioligand binding at 25 µM.
Target: h-SERT (Homo sapiens, UniProt P31645)
Construct: purchased Perkin-Elmer RBHSTM400UA; host or cells: HEK293 membranes
Assay: [3H]-paroxetine radioligand binding on h-SERT membranes (HEK293)
Settings: 25 μM compound, 2 nM [3H]-paroxetine, HEK293 h-SERT membranes; […]
Output spec: scalar in %, unitless text.

Field % radioligand binding at 25 µM (entry CN1CCC[C@H]1COC(=O)c1cccc(Br)c1 [Compound 4] ) reads 137

Field % radioligand binding at 25 µM (entry CN1CCCC1CCOC(=O)C(c1ccccc1)c1ccccc1 (racemic) [Compound 21] ) reads 86.5

Field % radioligand binding at 25 µM (entry CN1CCC[C@H]1COC(=O)c1ccccc1 [Compound 1] ) reads 86

Field % radioligand binding at 25 µM (entry CN1CCCC1CCOC(=O)Cc1ccccc1 (racemic) [Compound 16] ) reads 92

Field % radioligand binding at 25 µM (entry CN1CCCC1CCOC(=O)Cc1ccc(Cl)c(Cl)c1 (racemic) [Compound 17] ) reads 78

Field % radioligand binding at 25 µM (entry CN1CCC[C@H]1COC(=O)c1cccc(F)c1 [Compound 2] ) reads 123

Field % radioligand binding at 25 µM (entry CN1CCC[C@H]1COC(=O)c1ccc2ccccc2c1 [Compound 18] ) reads 117

Field % radioligand binding at 25 µM (entry CN1CCCC1CCOC(=O)c1ccc2ccccc2c1 (racemic) [Compound 19] ) reads 126

Field % radioligand binding at 25 µM (entry CN1CCCC1CCOC(=O)c1cccc(Cl)c1 (racemic) [Compound 9] ) reads 108

Field % radioligand binding at 25 µM (entry CN1CCCC1CCOC(=O)c1cccc(F)c1 (racemic) [Compound 8] ) reads 140

Field % radioligand binding at 25 µM (entry CN1CCC[C@H]1COC(=O)c1cccc(Cl)c1 [Compound 3] ) reads 87.5

----------
Molecular target: h-DAT (Homo sapiens, UniProt Q01959)
Construct: purchased Perkin-Elmer RBHDATM400UA; host or cells: CHO-K1 membranes
Assay: [3H]-WIN 35,428 competitive binding on h-DAT membranes (CHO-K1)
REPORTED_ENDPOINT: Ki (µM) h-DAT

Please review the entries below; each comes with its answer.
Cc1ccccc1C(=O)OCCC1CCCN1C (racemic) = did not display affinity
CN1CCC[C@H]1COC(=O)c1cccc(Br)c1 = N.E
Cc1ccc(C(=O)OCCC2CCCN2C)cc1 (racemic) = did not display affinity
Cc1ccc(C(=O)OC[C@@H]2CCCN2C)cc1 = did not display affinity

Let us examine a further case.
Field Ki (µM) h-DAT (entry Cc1ccccc1C(=O)OC[C@@H]1CCCN1C ) reads did not display affinity

----------
Molecular target: α4β2 nAChR (Rattus norvegicus, UniProt P09483+P12390)
Construct: the rat complete brain P1 fraction (occupying 2 mg of wet tissue for each assay); from tissue; host or cells: whole rat brain, synaptosome pellet (fraction P1)
Test: [3H]-cytisine competitive binding on whole rat brain synaptosomes
REPORTED_ENDPOINT: Ki (µM) α4β2 nAChR

Please review the entries below; each comes with its answer.
Cc1ccccc1C(=O)OCCC1CCCN1C (racemic) = did not display affinity
CN1CCCC1CCOC(=O)Cc1ccccc1 (racemic) = N.E
Cc1ccccc1C(=O)OC[C@@H]1CCCN1C = did not display affinity
CN1CCCC1CCOC(=O)c1cccc(F)c1 (racemic) = N.E

Let us examine a further case.
Field Ki (µM) α4β2 nAChR (entry Cc1ccc(C(=O)OCCC2CCCN2C)cc1 (racemic) ) reads did not display affinity

----------
Target: α4β2 nAChR (Rattus norvegicus, UniProt P09483+P12390)
Construct: the rat complete brain P1 fraction (occupying 2 mg of wet tissue for each assay); from tissue; host or cells: whole rat brain, synaptosome pellet (fraction P1)
Assay: [3H]-cytisine competitive binding on whole rat brain synaptosomes
REPORTED_ENDPOINT: Ki (µM) α4β2 nAChR

CN1CCCC1CCOC(=O)Cc1ccc(Cl)c(Cl)c1 (racemic) = N.E
CN1CCCC1CCOC(=O)c1ccc2ccccc2c1 (racemic) = N.E

----------
Biological target: h-DAT (Homo sapiens, UniProt Q01959)
Construct: purchased Perkin-Elmer RBHDATM400UA; host or cells: CHO-K1 membranes
Experiment: [3H]-WIN 35,428 competitive binding on h-DAT membranes (CHO-K1)
Cut-off 3 µM on Ki: below means fulfilled, at or above means not fulfilled.

Could you please tell me whether Ki recorded for CN1CCC[C@H]1COC(=O)c1ccc2ccccc2c1 is less than 3 µM?
not fulfilled

Could you please tell me whether Ki recorded for CN1CCCC1CCOC(=O)C(c1ccccc1)c1ccccc1 (racemic) is less than 3 µM?
fulfilled

Could you please tell me whether Ki recorded for CN1CCCC1CCOC(=O)Cc1ccc(Cl)c(Cl)c1 (racemic) is less than 3 µM?
not fulfilled

Could you please tell me whether Ki recorded for CN1CCCC1CCOC(=O)c1ccc2ccccc2c1 (racemic) is less than 3 µM?
not fulfilled

Could you please tell me whether Ki recorded for CN1CCCC1CCOC(=O)Cc1ccccc1 (racemic) is less than 3 µM?
not fulfilled
